measurementNotes: incubation of 14C-labelled compound with rat liver microsomes, HPLC analysis of the label
Assay type: in vitro ADME
runConditions: rat liver microsomes with NADPH and MgCl2, pH 7.4, 37°, 30 minutes, ethyl acetate extract, read-out: label representing unchanged starting material
Procedure: Rat liver tissue (55.6 g) was homogenized in 0.05M Tris -1.15% KCl buffer at pH 7.5 (100 ml). The homogenates were centrifuged at 10,000 RPM for 20 '. The supernatants were filtered through glass wool and then centrifuged as 100,000 g for 90'. After the supernatant was discarded the pellet was suspended in 10 mM EDTA -1.15% KCl (100 ml) and recentrifuged at 100,000 g for 90 minutes. […] Protein concentration (as determined by Biuret reaction) was 40 mg/ml of final suspension. […]
property: remaining at 0.5 h
Please answer using the number first and the unit second.

Requested read-out: remaining at 0.5 h. Entry: CCC(C)(C)C(=O)O[C@H]1C[C@@H](C)[C@@H](O)[C@@H]2CC[C@H](C)[C@H](CC[C@@H]3C[C@@H](O)CC(=O)O3)[C@H]21
52%

###

measurementNotes: incubation of 14C-labelled compound with rat liver microsomes, HPLC analysis of the label
Assay type: in vitro ADME
runConditions: rat liver microsomes with NADPH and MgCl2, pH 7.4, 37°, 60 minutes, methyl-t.butyl ether extract, read-out: label in the extract that was unchanged starting material
Description: Rat liver tissue (55.6 g) was homogenized in 0.05M Tris -1.15% KCl buffer at pH 7.5 (100 ml). The homogenates were centrifuged at 10,000 RPM for 20 '. The supernatants were filtered through glass wool and then centrifuged as 100,000 g for 90'. After the supernatant was discarded the pellet was suspended in 10 mM EDTA -1.15% KCl (100 ml) and recentrifuged at 100,000 g for 90 minutes. […] Protein concentration (as determined by Biuret reaction) was 40 mg/ml of final suspension. […]
property: remaining at 1 h
Phrase the answer as number then unit, nothing more needed.

What measured remaining at 1 h goes with CCC(C)(C)C(=O)O[C@H]1C[C@@H](C)C[C@@H]2CC[C@H](C)[C@H](CC[C@@H]3C[C@@H](O)CC(=O)O3)[C@H]21 ?
66%
